# Target of assay: T1, human TF ECD-His (hTF-his) (human, UniProt P13726 33-251)
# T1 construct: also called bio-hTF-his; human TF-His protein
# Experimental details: SPR Biacore T200, antibody on Protein A chip, TF-His as analyte, 1:1 model
kon by entry:
Field format: number, assumed M⁻¹ s⁻¹, no unit text.

// known answers, use as guide
Binder | Measure | Display unit | Measured value
hu67-7 (antibody, human IgG1, kappa, V domains shown) VH: EVQLQESGPGLVKPSQTLSLTCTVSGFSLTNYGVNWIRQPPGKGLEWIGVIWSRGNTDYNAAFISRVTISKDTSKNQVSLKLSSVTAADTAVYYCARKDAVVATDALDYWGQGTTVTVSS VL: DIVMTQSPKSLAVSLGERATINCKASQDVSTAVAWYQQKPGQSPKLLIYSTSYRYTGVPDRFSGSGSGTDFTFTISSLQAEDVAVYYCQQHYSTPYTFGGGTKVEIKR | kon | M⁻¹ s⁻¹ | 40800
hu67-2 (antibody, human IgG1, kappa, V domains shown) VH: EVTLKQSGPVLVKPTQTLTLTCTVSGFSLTNYGVNWIRQPPRKGLEWLGVIWSRGNTDYNAAFISRLTISKDNSKSQVVLKMTNMDPVDTATYYCARKDAVVATDALDYWGQGTTVTVSS VL: DIVMTQSPKSLAVSLGERATINCKASQDVSTAVAWYQQKPGQPPKLLIYSTSYRYTGVPDRFSGSGSGTDFTLTISSLQAEDVAVYYCQQHYSTPYTFGGGTKVEIKR | kon | M⁻¹ s⁻¹ | 42600
hu67Y116 (antibody, human IgG1, kappa, V domains shown) VH: EVQLQESGPGLVKPSQTLSLTCTVSGFSLTNYGVNWIRQSPGKGLEWIGVIWSRGNTDYNAAFKSRVTISKDTSKNQVSLKLSSVTAADTAVYYCARKDAIVATDALDYWGQGTTVTVSS VL: DIQMTQSPSSLSASVGDRVTITCKASQDVQTAVAWYQQKPGKAPKLLIYSTHYRYTGVPSRFSGSGSGTDFTFTISSLQPEDIATYYCLQSYTLPFSFGGGTKVEIKR | kon | M⁻¹ s⁻¹ | 66700
hu67-13 (antibody, human IgG1, kappa, V domains shown) VH: EVTLKQSGPVLVKPTQTLTLTCTVSGFSLTNYGVNWIRQPPRKALEWLAVIWSRGNTDYNAAFISRLTISKDTSKSQVVLKMTNMDPVDTATYYCARKDAVVATDALDYWGQGTTVTVSS VL: DIQMTQSHKFLSASVGDRVTITCKASQDVSTAVAWYQQKPGKSPKLLIYSTSYRYTGVPSRFSGSGSGTDFTFTISSLQPEDIATYYCQQHYSTPYTFGGGTKVEIKR | kon | M⁻¹ s⁻¹ | 30400

kon reading for hu67-5 (antibody, human IgG1, kappa, V domains shown) VH: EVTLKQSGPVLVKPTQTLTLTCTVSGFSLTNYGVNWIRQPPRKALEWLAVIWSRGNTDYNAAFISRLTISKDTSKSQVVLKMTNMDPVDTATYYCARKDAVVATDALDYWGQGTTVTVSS VL: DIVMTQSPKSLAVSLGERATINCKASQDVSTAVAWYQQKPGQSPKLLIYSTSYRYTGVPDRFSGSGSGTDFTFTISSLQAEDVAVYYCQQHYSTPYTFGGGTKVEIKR : 32800

Value of kon reported for the binder hu10H10-29 (antibody, V domains shown, H11+L1; Full-length IgG) VH: EVQLVQSGSELKKPGASVKVSCKASGYTFITYWIEWVKQRPGQGLEWMGDILPYSGSTNYNENFKGRATFSADTSVSTAYLQISSLKAEDTAVYYCARSGYYGNSGFAYWGQGTLVTVSS VL: DIQMTQSPSSLSASVGDRVTITCKSSQSLLSSGNQKNYLTWYQQKPGKAPKLLIYWASTRESGVPSRFSGSGSGTDFTLTISSLQPEDFATYYCQNDYTYPLTFGQGTKLEIK is 137000
